This collection of values is drawn from paper PMC9202019.

assay: Pharmacokinetics of caffeine alone and with pinocembrin in rats; assay type: in vivo; settings: male, Wistar, rat, plasma, po, 15 mg/kg, AUC0–t, caffeine 15 mg/kg oral alone (group I)
Readout Name: AUC(0-t) (ng·h/mL)
Return type: number; implicit unit ng·h/mL.

Query: Could you share which AUC(0-t) value was measured for Cn1c(=O)c2c(ncn2C)n(C)c1=O [caffeine] ?
Result: 2840

###

Consider the following compounds and their measured half-life readings.
type: in vivo, Wistar rats; conditions: male, Wistar, rat, plasma, po, 4 mg/kg, T1/2, tacrine 4 mg/kg oral alone (group III)
Note: a bare number is incomplete; add the unit.

1) Nc1c2c(nc3ccccc13)CCCC2O (centres unmarked) [hydroxytacrine, 1-hydroxytacrine] | 1.5 h

Consider the record given below.
Query: Could you share which half-life value was measured for `Nc1c2c(nc3ccccc13)CCCC2` ?
Result: 1.7 h

###

assay: Liver distribution of pinocembrin after intravenous dosing in rats; format: in vivo; conditions: male, Wistar, rat, liver, 10 mg/kg
Readout Name: concentration at 5 min (ng/g)
Return type: number; implicit unit ng/g.

Query: Could you share which concentration at 5 min value was measured for `O=C1C[C@@H](c2ccccc2)Oc2cc(O)cc(O)c21` ?
Result: 3680

###

molecular target: CYP1A2 (Rattus norvegicus, UniProt P04799); assay: CYP1A2-catalyzed phenacetin O-deethylation in RLM; format: in vitro ADME
Sequence (P04799 whole entry): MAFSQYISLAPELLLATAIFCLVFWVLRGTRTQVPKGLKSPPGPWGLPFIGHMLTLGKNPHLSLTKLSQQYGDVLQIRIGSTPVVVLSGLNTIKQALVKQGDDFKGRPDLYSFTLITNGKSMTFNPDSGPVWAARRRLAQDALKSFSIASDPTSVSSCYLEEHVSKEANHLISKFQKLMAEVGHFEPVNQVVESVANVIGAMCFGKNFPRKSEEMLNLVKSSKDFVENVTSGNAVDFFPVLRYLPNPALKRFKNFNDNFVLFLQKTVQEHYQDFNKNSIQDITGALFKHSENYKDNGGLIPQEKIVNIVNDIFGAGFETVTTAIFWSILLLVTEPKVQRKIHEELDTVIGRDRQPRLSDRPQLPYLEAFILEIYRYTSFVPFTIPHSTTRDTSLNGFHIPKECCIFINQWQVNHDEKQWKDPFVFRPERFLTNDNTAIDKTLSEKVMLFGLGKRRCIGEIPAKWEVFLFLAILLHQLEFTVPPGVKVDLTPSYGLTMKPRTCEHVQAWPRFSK
Readout Name: IC50 (µM)
Return type: number; implicit unit µM.

Query: Could you share which IC50 value was measured for `O=C1C[C@@H](c2ccccc2)Oc2cc(O)cc(O)c21` ?
Result: 3.11

###

Consider the following compounds and their measured AUC(0-t) readings.
format: in vivo, Wistar rats; details: male, Wistar, rat, plasma, po, 4 mg/kg, AUC0–t, tacrine 4 mg/kg oral alone (group III)

1) Nc1c2c(nc3ccccc13)CCCC2 [tacrine] | 142 ng·h/mL

Consider the record given below.
Query: Could you share which AUC(0-t) value was measured for Nc1c2c(nc3ccccc13)CCCC2O (centres unmarked) [hydroxytacrine, 1-hydroxytacrine] ?
Result: 907 ng·h/mL

###

assay: Liver distribution of pinocembrin after intravenous dosing in rats; assay type: in vivo; details: male, Wistar, rat, plasma, 10 mg/kg
Readout Name: concentration at 15 min (ng/mL)
Return type: number; implicit unit ng/mL.

Query: Could you share which concentration at 15 min value was measured for `O=C1C[C@@H](c2ccccc2)Oc2cc(O)cc(O)c21` ?
Result: 621
